Overview of reported cytotoxicity at 70.5 h across a group of molecules:
Test: Human HepG2 cell viability assay in 384 well format
Assay type: toxicity, cell-based
Design: dose 125 nL, time 70.5 hour; concentration not given beside the values
Settings: HepG2 cells, read-out: Inhibition
// return numeric value only (unit: %, not printed)

[[record]]
molecule = "Fc1cc(CNc2nncs2)ccc1Cl"
observed = -2.31


IN: Give me measured cytotoxicity at 70.5 h, please, for this molecule: CCOCC(O)CN1CCN(C(=O)Cc2ccc3c(c2)CCO3)CC1 (centres undefined)
OUT: 0.715

IN: Return cytotoxicity at 70.5 h for the following molecule: CCc1nc(-c2cncnc2C2CCCNC2)no1 (centres undefined)
OUT: -1.26

IN: Determine from records and report cytotoxicity at 70.5 h for O=C(Nc1cccnc1N1CCCC1)C1CCS(=O)(=O)C1 (centres undefined)
OUT: 1.04
